From: ChEMBL document CHEMBL4689842

Reported Population Pyknosed Nuclei (%) values for a set of compounds
- System: HEK-293T
- protocol description: Multiplex assay against HEK293T
- Type: toxicity, cell-based
- assay setup: human, 48 h, 10 µM, compound concentration 10 uM, replicate 2
# output: bare number, implied unit %

Sample records with Population Pyknosed Nuclei (%):
O=C(Nc1ccc(-n2nc(-c3cccnc3)cc2C(F)(F)F)cn1)c1ccc(-c2ccccc2)c(F)c1	10
COCC(=O)NC/C=C/c1ccc2ncnc(Nc3ccc(Oc4ccc(C)nc4)c(C)c3)c2c1	39
CCCS(=O)(=O)c1nc(NC2CC2)cc(-c2ccc3c(ccn3C3CC(C)(C)NC(C)(C)C3)c2)n1	44
CN(C)C(=O)C(CCN1CCC(O)(c2ccc(Cl)cc2)CC1)(c1ccccc1)c1ccccc1.Cl [LOPERAMIDE HYDROCHLORIDE]	82
Cc1cc(C)c(S(=O)(=O)N(Cc2ccc(-c3cccc(S(C)(=O)=O)c3)cc2)Cc2ccc(C(F)(F)F)o2)c(C)c1	6

Q. Provide the documented Population Pyknosed Nuclei (%) with HEK-293T as the system for Cl.Oc1ccc2c3c1O[C@H]1c4[nH]c5c(c4C[C@@]4(O)[C@@H](C2)N(CC2CC2)CC[C@]314)C[C@@]1(O)[C@H]2Cc3ccc(O)c4c3[C@@]1(CCN2CC1CC1)[C@H]5O4
A. 10

Q. Here is the next compound: Cc1ccc(C(=O)Nc2cccc(C(F)(F)F)c2)cc1Nc1nc(-c2cccnc2)nc2c1cnn2C
A. 61

Q. Same lookup for O=C1N/C(=N/c2ccccc2F)S/C1=C\c1ccc(C(=O)O)cc1 , please.
A. 9

Q. Similarly, Cc1cn(-c2cc(NC(=O)c3ccc(C)c(Nc4nccc(-c5cccnc5)n4)c3)cc(C(F)(F)F)c2)cn1 ?
A. 23

Q. Now give it for CCc1cccc(CC)c1NC(=O)c1nn(C)c2c1CCc1cnc(Nc3ccc(C(=O)NC4CCN(C)CC4)cc3OC(F)(F)F)nc1-2 too.
A. 52

====

- Tested on: HEK-293T
- protocol description: Multiplex assay against HEK293T
- Type: toxicity, cell-based
- assay setup: human, 12 h, 1 µM, compound concentration 1 uM, replicate 2
Listed here: items and their measured Population Apoptotic (%).
Report the figure in % without appending any unit label.

O=C1NC(=O)C(c2cnc3ccccn23)=C1c1cn2c3c(cc(F)cc13)CN(C(=O)N1CCCCC1)CC2 [LY-2090314]	26
CCNc1cc(N[C@H]2CC[C@H](O)CC2)nc(Nc2ccc3c(ccn3Cc3ccccc3)c2)n1	7
O=C(Cc1ccc(-c2ccc(OCCN3CCOCC3)cc2)cn1)NCc1ccccc1 [TIRBANIBULIN]	16
COc1cc2ncnc(Nc3ccc(F)c(Cl)c3)c2cc1NC(=O)/C=C/CN1CCCCC1 [DACOMITINIB ANHYDROUS]	13
O=C(Nc1ccc(Cl)cc1)Nc1cccc(-c2cccc(N3CCCC3)n2)c1	17
CCCn1c(=O)c2[nH]c(-c3cnn(Cc4cccc(C(F)(F)F)c4)c3)nc2n(CC)c1=O [GS 6201]	9
Cc1ccc(C(=O)Nc2cccc(C(F)(F)F)c2)cc1Nc1nc(-c2cccnc2)nc2c1cnn2C	27
CCN1CCN(Cc2ccc(Nc3ncc(F)c(-c4cc(F)c5nc(C)n(C(C)C)c5c4)n3)nc2)CC1.CS(=O)(=O)O	40

Q. Form field: reported Population Apoptotic (%) of O=C(Nc1ccc(-c2ccnc(Nc3ccc(N4CCOCC4)cc3)n2)cc1)[C@@H]1CCCN1
A. 13

Q. Repeat for the following compound: C=C1/C(=C\C=C2/CCC[C@]3(C)[C@@H]([C@H](C)/C=C/[C@H](C)C(C)C)CC[C@@H]23)C[C@@H](O)C[C@@H]1O [DOXERCALCIFEROL]
A. 10

Q. Next up: CN(C)C(=O)C(CCN1CCC(O)(c2ccc(Cl)cc2)CC1)(c1ccccc1)c1ccccc1.Cl [LOPERAMIDE HYDROCHLORIDE]
A. 56

Q. What would you report for CN1CCC(=C2c3ccccc3CC(=O)c3sccc32)CC1.O=C(O)/C=C/C(=O)O [KETOTIFEN FUMARATE] ?
A. 13

Q. Now consider COC(=N)c1nc2ccc3ncnc(Nc4ccc(OC)cc4F)c3c2s1 .
A. 24

Q. Input Cl.O=c1c2cccn2c2ccccc2n1CCCN1CCC(c2ccc(Cl)cc2)CC1
A. 30

Q. Could you do the same for O=C(Nc1ccc(-n2nc(-c3cccnc3)cc2C(F)(F)F)cn1)c1ccc(-c2ccccc2)c(F)c1 [BI 2049] , please?
A. 3

Q. Now consider COc1ccc(S(=O)(=O)N(CCO)c2ccccc2CN(C)C/C=C/c2ccc(Cl)cc2)cc1.O=P(O)(O)O .
A. 35
